test: Bioavailability in rat at 10 mg/kg, po; format: ADME, organism-based; conditions: in vivo
quantity: bioavailability (%)

compound="C#CCCC(NC(=O)[C@@H]1[C@@H]2[C@H](CN1C(=O)[C@@H](NC(=O)N[C@H](COC(=O)NCC)C(C)(C)C)C1(C)CCCCC1)C2(C)C)C(=O)C(=O)NCC=C (stereo partly specified)" unit_spec=% readout_value=43

----------
assay: Drug level in rat liver at 10 mg/kg, po after 1 hr; type: ADME, organism-based; set-up: dose 10 mg/kg, route oral; conditions: read-out: Drug uptake
quantity: concentration at 1 h (ng/g)

molecule="CCNC(=O)OC[C@@H](NC(=O)N[C@H](C(=O)N1C[C@H]2[C@@H]([C@H]1C(=O)NC(CC1CCC1)C(=O)C(N)=O)C2(C)C)C1Cc2ccccc2C1)C(C)(C)C (stereo partly specified)" quantity="concentration at 1 h" unit_spec=ng/g readout_value=244

----------
experiment: AUC (0 to 6 hrs) in rat at 10 mg/kg, po; type: ADME, organism-based; design: time < 6 hr, dose 10 mg/kg, route oral; conditions: plasma
Attribute: AUC(0-t) at 6 h
quantity: AUC(0-t) at 6 h

molecule="C#CCCC(NC(=O)[C@@H]1[C@@H]2[C@H](CN1C(=O)[C@@H](NC(=O)N[C@H](COC(=O)NCC(C)C)C(C)(C)C)C1(C)CCCCC1)C2(C)C)C(=O)C(=O)NCC=C (stereo not given in full)" readout_value="4.9 µM·h"
molecule="C#CCCC(NC(=O)[C@@H]1[C@@H]2[C@H](CN1C(=O)[C@@H](NC(=O)N[C@H](COC(=O)NCC1CC1)C(C)(C)C)C1(C)CCCCC1)C2(C)C)C(=O)C(=O)NCC=C (stereo not given in full)" readout_value="5 µM·h"
molecule="C#CCCC(NC(=O)[C@@H]1[C@@H]2[C@H](CN1C(=O)[C@@H](NC(=O)N[C@H](COC(=O)NC(C)C)C(C)(C)C)C1(C)CCCCC1)C2(C)C)C(=O)C(=O)NCC=C (stereo not given in full)" readout_value="7.9 µM·h"
molecule="C=CCNC(=O)C(=O)C(CCC)NC(=O)[C@@H]1[C@@H]2[C@H](CN1C(=O)[C@@H](NC(=O)N[C@H](COC(=O)NC(C)C)C(C)(C)C)C1(C)CCCCC1)C2(C)C (stereo not given in full)" readout_value="6.6 µM·h"
molecule="C=CCNC(=O)C(=O)C(CCC)NC(=O)[C@@H]1[C@@H]2[C@H](CN1C(=O)[C@@H](NC(=O)N[C@H](COC(=O)NCC)C(C)(C)C)C1Cc3ccccc3C1)C2(C)C (stereo not given in full)" readout_value="0.7 µM·h"

----------
test: AUC (0 to 24 hrs) in rat at 10 mg/kg, po; assay type: ADME, organism-based; set-up: time < 24 hr, dose 10 mg/kg, route oral; settings: plasma
quantity: AUC(0-t) at 24 h

compound="C#CCCC(NC(=O)[C@@H]1[C@@H]2[C@H](CN1C(=O)[C@@H](NC(=O)N[C@H](COC(=O)NCC)C(C)(C)C)C1(C)CCCCC1)C2(C)C)C(=O)C(=O)NCC=C (stereo partly specified)" readout_value="26 µM·h"

----------
system: Hepatitis C virus; assay: Antiviral activity against HCV replication in human hepatoma cells by replicon assay; format: functional, Hepacivirus hominis
Attribute: EC90
quantity: EC90 (nM)

molecule="COC[C@@H](NC(=O)N[C@H](C(=O)N1C[C@H]2[C@@H]([C@H]1C(=O)NC(CC1CCC1)C(=O)C(N)=O)C2(C)C)C1CCCCC1)C(C)(C)C (stereo partly specified)" readout_value=300
molecule="C=CCNC(=O)C(=O)C(CCCC)NC(=O)[C@@H]1[C@@H]2[C@H](CN1C(=O)[C@@H](NC(=O)N[C@H](COC(=O)NCC)C(C)(C)C)C1(C)CCCCC1)C2(C)C (stereo partly specified)" readout_value=400
molecule="CCNC(=O)OC[C@@H](NC(=O)N[C@H](C(=O)N1C[C@H]2[C@@H]([C@H]1C(=O)NC(CC1CC1)C(=O)C(N)=O)C2(C)C)C1Cc2ccccc2C1)C(C)(C)C (stereo partly specified)" readout_value=200
molecule="CC(C)(C)NC(=O)OC[C@@H](NC(=O)N[C@H](C(=O)N1C[C@H]2[C@@H]([C@H]1C(=O)NC(CC1CCC1)C(=O)C(N)=O)C2(C)C)C1Cc2ccccc2C1)C(C)(C)C (stereo partly specified)" readout_value=200
molecule="COC[C@@H](NC(=O)N[C@H](C(=O)N1C[C@H]2[C@@H]([C@H]1C(=O)NC(CC1CCC1)C(=O)C(N)=O)C2(C)C)C1Cc2ccccc2C1)C(C)(C)C (stereo partly specified)" readout_value=200
molecule="CC(C)(C)NC(=O)N[C@H](C(=O)N1C[C@H]2[C@@H]([C@H]1C(=O)NC(CC1CCC1)C(=O)C(N)=O)C2(C)C)C(C)(C)C (stereo partly specified) [BOCEPREVIR]" readout_value=350
molecule="C=CCNC(=O)C(=O)C(CCC)NC(=O)[C@@H]1[C@@H]2[C@H](CN1C(=O)[C@@H](NC(=O)N[C@H](COC(=O)NCC)C(C)(C)C)C1(C)CCCCC1)C2(C)C (stereo partly specified)" readout_value=150
molecule="COC[C@@H](NC(=O)N[C@H](C(=O)N1C[C@H]2[C@@H]([C@H]1C(=O)NC(CC1CCC1)C(=O)C(N)=O)C2(C)C)C1(C)CCCCC1)C(C)(C)C (stereo partly specified)" readout_value=150
molecule="C=CCNC(=O)C(=O)C(CCC)NC(=O)[C@@H]1[C@@H]2[C@H](CN1C(=O)[C@@H](NC(=O)N[C@H](COC(=O)NCC1CC1)C(C)(C)C)C1(C)CCCCC1)C2(C)C (stereo partly specified)" readout_value=100
molecule="C#CCCC(NC(=O)[C@@H]1[C@@H]2[C@H](CN1C(=O)[C@@H](NC(=O)N[C@H](COC(=O)NCC)C(C)(C)C)C1(C)CCCCC1)C2(C)C)C(=O)C(=O)NCC=C (stereo partly specified)" readout_value=150
molecule="C#CCCC(NC(=O)[C@@H]1[C@@H]2[C@H](CN1C(=O)[C@@H](NC(=O)N[C@H](COC(=O)NCC1CCCCC1)C(C)(C)C)C1(C)CCCCC1)C2(C)C)C(=O)C(=O)NCC=C (stereo partly specified)" readout_value=250
molecule="C=CCNC(=O)C(=O)C(CC1CC1)NC(=O)[C@@H]1[C@@H]2[C@H](CN1C(=O)[C@@H](NC(=O)N[C@H](COC(=O)NCC)C(C)(C)C)C1Cc3ccccc3C1)C2(C)C (stereo partly specified)" readout_value=400
molecule="CC(C)NC(=O)OC[C@@H](NC(=O)N[C@H](C(=O)N1C[C@H]2[C@@H]([C@H]1C(=O)NC(CC1CCC1)C(=O)C(N)=O)C2(C)C)C1Cc2ccccc2C1)C(C)(C)C (stereo partly specified)" readout_value=200
molecule="CN(C)C(=O)OC[C@@H](NC(=O)N[C@H](C(=O)N1C[C@H]2[C@@H]([C@H]1C(=O)NC(CC1CCC1)C(=O)C(N)=O)C2(C)C)C1Cc2ccccc2C1)C(C)(C)C (stereo partly specified)" readout_value=300
molecule="C#CCCC(NC(=O)[C@@H]1[C@@H]2[C@H](CN1C(=O)[C@@H](NC(=O)N[C@H](COC(=O)NCC)C1CCCCC1)C1(C)CCCCC1)C2(C)C)C(=O)C(=O)NCC=C (stereo partly specified)" readout_value=200
molecule="CCNC(=O)OC[C@@H](NC(=O)N[C@H](C(=O)N1C[C@H]2[C@@H]([C@H]1C(=O)NC(CC1CCC1)C(=O)C(N)=O)C2(C)C)C1(C)CCCCC1)C(C)(C)C (stereo partly specified)" readout_value=150
molecule="CCNC(=O)OC[C@@H](NC(=O)N[C@H](C(=O)N1C[C@H]2[C@@H]([C@H]1C(=O)NC(CC1CCC1)C(=O)C(N)=O)C2(C)C)C1CCCCC1)C(C)(C)C (stereo partly specified)" readout_value=600
molecule="C#CCCC(NC(=O)[C@@H]1[C@@H]2[C@H](CN1C(=O)[C@@H](NC(=O)N[C@H](COC(=O)NCC)C(C)(C)C)C1(C)CCCCC1)C2(C)C)C(=O)C(=O)NCC (stereo partly specified)" readout_value=200
molecule="COC[C@@H](NC(=O)N[C@H](C(=O)N1C[C@H]2[C@@H]([C@H]1C(=O)NC(CC1CCC1)C(=O)C(N)=O)C2(C)C)C1(C)CCCCC1)C(C)C (stereo partly specified)" readout_value=200
molecule="CNC(=O)OC[C@@H](NC(=O)N[C@H](C(=O)N1C[C@H]2[C@@H]([C@H]1C(=O)NC(CC1CCC1)C(=O)C(N)=O)C2(C)C)C1Cc2ccccc2C1)C(C)(C)C (stereo partly specified)" readout_value=200
molecule="C#CCCC(NC(=O)[C@@H]1[C@@H]2[C@H](CN1C(=O)[C@@H](NC(=O)N[C@H](COC(=O)NCC(C)C)C(C)(C)C)C1(C)CCCCC1)C2(C)C)C(=O)C(=O)NCC=C (stereo partly specified)" readout_value=70

Reference for the values: ChEMBL document CHEMBL1138483
